Test system: SK-MEL-5 melanoma
Experiment: NCI tumour cell line growth inhibition, 48 h
Give measured TGI for each item. Keep answers brief.

Give recorded TGI. "CCCN(CCC)CCCNC(=O)c1cc2c(-c3ccc(OC)c(OC)c3)nn(C)c2s1"
29 µM

Tell me its TGI given "C#COc1cccc(Nc2ncnc3ncc(NC(=O)CCl)cc23)c1" as the entry.
> 62.5 µM

Query TGI for "O=S1(=O)CS(=O)(=O)OCCCO1"
> 100 µM

Consider the molecule "Cn1cc(C[C@@H](N)C(=O)O)c2ccccc21" . State its measured TGI.
> 100 µM

Let me know recorded TGI for "C#CCNC(=O)CC[C@]1(C)[C@H]2CC[C@@H]3[C@@H]([C@@](C)(O)CCC=C(C)C)CC[C@@]3(C)[C@]2(C)CC[C@H]1C(=C)C" , thanks.
> 100 µM

Give the value of TGI reported for the following: "COC(=NCCC1=CCCCC1)OC"
> 100 µM

Look up and state reported TGI for COc1cccc(NC(=O)CC(=O)N2NC(C)C(N=Nc3cccc(C(=O)O)c3)C2=O)c1 (configuration not stated)
> 100 µM

Supply TGI value. Item: "CCOC(=O)C(=O)N=Nc1nc2c(O)c3ccccc3c(O)c2s1"
3.62 µM

Give the measured TGI for "COc1ccc([N-]/C(=N\n2c(=O)c(C)nn(C)c2=S)N(c2ccc(OC)cc2)c2nn3c(=O)c(C)n[n+](C)c3s2)cc1"
> 100 µM

Entry "O=C(Nc1ccc(Cl)cc1)/C(Cc1cccc[n+]1[O-])=N\Nc1ccc([N+](=O)[O-])cc1[N+](=O)[O-]" needs its TGI filled in; supply it.
> 100 µM

Name the recorded TGI of the molecule listed here: "C=C1Oc2nc3ccccc3c(=O)n2C1(C)C"
> 100 µM

Respond only with TGI recorded for CC(=O)OC1CC2(c3ccccc3)C(=O)c3ccccc3N2O1 (configuration not stated)
> 100 µM

Tell us which TGI value is on record for "O=C1NC(=O)C(C(c2ccc(Cl)cc2)C2C(=O)NC(=O)NC2=O)C(=O)N1"
> 100 µM

Please list TGI recorded for the molecule C#CCOC(=O)C(N)CSSCC(N)C(=O)O (configuration not stated)
> 100 µM

Retrieve TGI measured for C=C1CCC2C3(C)COC(c4ccc(SC)cc4)OC3CCC2(C)C1C/C=C1/C(=O)OCC1O (configuration not stated) and print it.
19.4 µM

// Input: "Cc1cc2c(cc1C)[n+](=O)c(C(=O)N1CCN(c3ccc([N+](=O)[O-])cc3)CC1)c(C)n2[O-]" . Output its TGI only.
> 100 µM

Give the measured TGI for "N#CN1CCC[C@H]1C(=O)N1CCc2c(-c3[nH]nc4ncccc34)cccc21"
0.126 µM

Provide only the value of recorded TGI for "[C-]#[O+].[Cl][Sn]([Cl])[Cl].[Cl][Sn]([Cl])[Cl].[Pt].c1ccncc1"
> 100 µM

Quote TGI reported for "COc1ccc2c(=O)c3cc([N+](=O)[O-])ccc3n(C)c2c1" please.
> 100 µM

Give me measured TGI, please, for this molecule: "C=C(CS(=O)(=O)c1ccccc1)[P+](c1ccccc1)(c1ccccc1)c1ccccc1"
29.1 µM

Tell me TGI reported for "COC(=O)NN=C(c1ccc(Cl)cc1)c1ccc(Cl)cc1"
> 100 µM

Quickly give me recorded TGI for "Cc1cc(C(=O)N2CCN(Cc3ccccc3)CC2)c(C)o1"
> 100 µM

---

System: NCI/ADR-RES ovarian
Assay: NCI tumour cell line growth inhibition, 48 h
parameter: TGI

Item CCN1CC2=C(NC(=S)NC2c2cc(OC)c(OC)c(OC)c2)/C(=C/c2cc(OC)c(OC)c(OC)c2)C1 (stereo unspecified) : provide TGI
> 100 µM

Note TGI for the compound shown: "C=C1C(=O)O[C@@H]2C[C@@H]1CC[C@@]1(C)O[C@@H]1CC[C@@]1(C)O[C@@H]1CC[C@@]2(C)O"
78.3 µM

For the compound "CCCN(CCC)CCCNC(=O)c1cc2c(-c3ccc(OC)c(OC)c3)nn(C)c2s1" , give its reported TGI.
> 100 µM

Dear colleague, please send me the reported TGI for COc1cc(C2CC(c3cc(C)ccc3C)=NN2c2ccc(S(=O)(=O)NC(=O)NCc3ccccc3)cc2)cc(OC)c1OC (stereo unspecified) when you can.
31.7 µM

Consider the compound "O=c1cc(CC(O)(C(F)(F)Cl)C(F)(F)Cl)[nH]n1-c1ccccc1" . State its measured TGI.
> 100 µM

Quote TGI reported for "CC(C)N=C(NC#N)NS(=O)(=O)c1cnccc1Nc1ccc(Cl)cc1" please.
> 100 µM

Check the records and state TGI for "CCOC(=O)c1cc(C(=O)c2cc(OC)cc(OC)c2)n2ncc3ccccc3c12"
> 100 µM

Determine from records and report TGI for "O=[N+]([O-])c1cccc2nc3ccccc3c(NCCCN3CCOCC3)c12"
0.341 µM

Indicate the recorded TGI value for this compound: "COC(=O)NN=C(c1ccc(Cl)cc1)c1ccc(Cl)cc1"
> 100 µM

Tell me its TGI given "CN(C)CCCNc1nnc(NCCCN(C)C)c2c(=O)c3sccc3[nH]c12" as the entry.
> 100 µM

Read the entry "Cc1ccc2c(=O)c(-c3nnc(N)s3)c[nH]c2n1" and write its reported TGI.
> 100 µM

---

Test system: BT-549 breast
Test: NCI tumour cell line growth inhibition, 48 h
parameter: TGI

Quote BT-549 breast TGI for entry C#CCOC(=O)C(N)CSSCC(N)C(=O)O (stereo not drawn) .
> 100 µM

Write TGI of COc1ccc2c(c1)nc1n2C(c2c(F)cccc2Cl)SC1 (stereo not drawn) ; system used: BT-549 breast
> 31.3 µM

Name the recorded TGI of "N#Cc1cccc(NC(=O)c2oc3ccccc3c2-c2cnn(-c3ccccc3)c2)c1" , assay system BT-549 breast.
> 500 µM

---

Test system: SNB-75 CNS
Assay: NCI tumour cell line growth inhibition, 48 h
Exercise: for every item that follows, state its recorded TGI.

Please indicate recorded TGI of "COc1cc2cc[n+]3c4cc(OC)c(OC)cc4c(C)cc3c2cc1OC" measured with SNB-75 CNS.
> 100 µM

// output TGI; input O=C(O)CCC1(Br)CCCCC(Br)C1=O (stereo unspecified) ; system SNB-75 CNS
> 100 µM

Please respond with reported TGI (system SNB-75 CNS) for CC1(C)C2CCC3(OCCO3)C1C1OC12 (stereo unspecified) .
> 100 µM

For SNB-75 CNS, give the measured TGI of the entry "Cc1cc(C(=O)N2CCN(Cc3ccccc3)CC2)c(C)o1"
> 100 µM

Name the recorded TGI of "C#COc1cccc(Nc2ncnc3ncc(NC(=O)CCl)cc23)c1" , assay system SNB-75 CNS.
> 62.5 µM

Lab note: record TGI of "Clc1ccc(-c2nn3ncccc3c2-c2ccnc(Nc3ccccc3)n2)cc1" tested on SNB-75 CNS.
> 25 µM

---

System: NCI-H23 lung
Assay: NCI tumour cell line growth inhibition, 48 h
parameter: TGI

# return TGI of CCC1CC(=O)N(SCC(N)C(=O)O)C1=O (centres undefined) (system: NCI-H23 lung)
> 100 µM

Please report TGI with NCI-H23 lung for item "CC1(C)C(=S)C(C)(C)C1=S" .
> 100 µM

Fill in TGI for CC(=O)OC1C(CCl)OC(N=[N+]=[N-])C(OC(C)=O)C1OC(C)=O (centres undefined) tested with NCI-H23 lung.
> 100 µM

State the measured TGI (NCI-H23 lung) of "CC(=O)NCCc1c[nH]c2ccc(Cl)cc12"
> 100 µM

---

System: SNB-75 CNS
Test: NCI tumour cell line growth inhibition, 48 h
parameter: TGI

Report TGI for CCC1CC(=O)N(SCC(N)C(=O)O)C1=O (stereo not given)
> 100 µM

Check the records and state TGI for "C[C@H]1CC[C@@H]2[C@@H](C)[C@H]3[C@H](C[C@H]4[C@@H]5CC=C6C[C@@H](O)CC[C@]6(C)[C@H]5C[C@H](O)[C@]34C)N2C1"
> 100 µM

Determine from records and report TGI for "N#CN1CCC[C@H]1C(=O)N1CCc2c(-c3[nH]nc4ncccc34)cccc21"
2.78 µM

Look up TGI of "CCOc1ccc2c(ccc(/C=C\c3cc(C)c4cccnc4c3O)[n+]2C)c1" and report it.
15 µM

For the compound "O=C(Nc1ccccc1C(=O)O)/C(=C/c1ccccc1)NC(=O)c1ccccc1" , report TGI.
> 100 µM

Dear colleague, please send me the reported TGI for "CC1(C)C(=S)C(C)(C)C1=S" when you can.
> 100 µM

Please supply the value of reported TGI for the item O=C(O)C1c2ccccc2C(C(=O)O)c2ccccc21 (stereo not given)
> 100 µM

Annotate the compound COP1(=O)NCc2ncccc2O1 (stereo not given) with its measured TGI.
> 100 µM

Give the measured TGI for "COc1cc2c3c(n(C)c(=O)c2cc1OC)-c1cc2c(cc1/C3=C\CCCBr)OCO2"
12.8 µM

Return value of TGI for input "[C-]#[O+].[Cl][Sn]([Cl])[Cl].[Cl][Sn]([Cl])[Cl].[Pt].c1ccncc1" , no commentary.
> 100 µM

Input "O=C(Nc1ccc(Cl)cc1)/C(Cc1cccc[n+]1[O-])=N\Nc1ccc([N+](=O)[O-])cc1[N+](=O)[O-]" , output reported TGI.
> 100 µM

Supply reported TGI belonging to this compound: "CN(C)CCCNc1nccc(-c2c(-c3ccc(F)cc3)nn3cc(C(F)(F)F)ccc23)n1"
> 16.9 µM

Using known records, supply TGI for Nc1ncnc2c1ncn2C1CCC(CO)O1 (stereo not given)
> 100 µM

State its TGI: "c1ccc(-c2nn(-c3ccccc3)[n+](-c3cccc4ccccc34)n2)cc1"
14.8 µM

Respond only with TGI recorded for CC12CC[C@H](O)C(C)(C)[C@H]1CC[C@](C)(O)C2COc1ccc2ccc(=O)oc2c1 (stereo not given in full)
> 100 µM
